- Test system: Fusarium linii KB-F1
- test details: Microbial growth curve screening, F. linii
- Type: cell-based
- cond: 0.1% (w/v), control 13.5 h
- Description: The antimicrobial screening tests were performed on two strains of bacteria: E. coli ATCC10536 and S. aureus DSM799, strain of yeast C. albicans DSM1386 and three strains of fungi: F. linii KB-F1, A. alternata CBS1526 and A. niger DSM1957. […] The optical density of the cell suspension was measured on Bioscreen C (Automated Growth Curve Analysis System Lab System, Vantaa, Finland) at 560 nm automatically, at regular intervals of 30 min for 2–3 days. […]
Label Y when Lag-phase F. linii >= 20 h; otherwise N.

Q: Identify whether the reported Lag-phase F. linii of the following compound is 20 h or greater: Nc1ccccc1C(=O)/C=C/c1ccc(OCc2ccccc2)cc1
Ans: N

----------
- Tested on: Aspergillus niger DSM1957
- test details: Microbial growth curve screening, A. niger
- Type: cell-based
- cond: 0.1% (w/v), OD at 560 nm, control 2.14
Field: ∆OD A. niger. Provide a value for each of the compounds that follow.
Answers are plain numbers.

Example results:
{"compound": "CCc1ccc(/C=C/C(=O)c2cccc(N)c2)cc1", "∆OD A. niger": 0.36}
{"compound": "CCc1ccc(/C=C/C(=O)c2ccc(N)cc2)cc1", "∆OD A. niger": 0.41}
{"compound": "Nc1ccc(C(=O)/C=C/c2ccc(OCc3ccccc3)cc2)cc1", "∆OD A. niger": 0.57}

List the reported ∆OD A. niger of each compound below.
1. C[C@@H]1[C@H](O)[C@@H](C)/C=C/C=C/CC/C=C/C=C/C=C/C=C/C(O[C@H]2O[C@H](C)[C@@H](O)[C@H](N)[C@@H]2O)CC2O[C@](O)(CC(O)C(O)CCC(O)CC(O)CC(O)CC(=O)O[C@H]1C)CC(O)C2C(=O)O (stereo partly drawn) [Nystatin, reference compound]
2. COc1cc(/C=C/C(=O)c2ccc(N)cc2)ccc1OCc1ccccc1
3. Nc1cccc(C(=O)/C=C/c2ccc([N+](=O)[O-])cc2)c1

Ans:
1. 0.74
2. 0.65
3. 0.83

----------
- Tested on: Fusarium linii KB-F1
observable: MIC (µg/mL)
Give bare numbers, in µg/mL.

Okay, here is my list. What is MIC for each of these?
1. COc1cc(/C=C/C(=O)c2ccccc2N)ccc1OCc1ccccc1
2. Nc1ccccc1C(=O)/C=C/c1ccc([N+](=O)[O-])cc1
3. Nc1cccc(C(=O)/C=C/c2ccc([N+](=O)[O-])cc2)c1
4. Nc1ccc(C(=O)/C=C/c2ccc([N+](=O)[O-])cc2)cc1
5. Nc1ccc(C(=O)/C=C/c2ccccc2)cc1

Ans:
1. 0.5
2. 0.5
3. 0.5
4. 1
5. 0.25

----------
- Test system: Alternaria alternata CBS1526
- test details: Microbial growth curve screening, A. alternata
- Assay type: cell-based
- cond: 0.1% (w/v), control 16.5 h
observable: Lag-phase A. alternata
Output should be the measured figure followed by the unit it is expressed in.

{"smiles representation": "Nc1cccc(C(=O)/C=C/c2ccc(OCc3ccccc3)cc2)c1", "system": "Alternaria alternata CBS1526", "Lag-phase A. alternata": "12.0 h"}

Could I get Lag-phase A. alternata for every one of these entries?
1. Nc1ccc(C(=O)/C=C/c2ccc(C(=O)O)cc2)cc1
2. Nc1ccc(C(=O)/C=C/c2ccc(OCc3ccccc3)cc2)cc1

Ans:
1: 12.5 h; 2: 19.5 h

Provide Lag-phase A. alternata values for the following items, in order.
1. Nc1cccc(C(=O)/C=C/c2ccc(C(=O)O)cc2)c1
2. CCc1ccc(/C=C/C(=O)c2ccccc2N)cc1
3. COc1cc(/C=C/C(=O)c2ccc(N)cc2)ccc1OCc1ccccc1
4. COc1cc(/C=C/C(=O)c2ccccc2N)ccc1OCc1ccccc1
5. Nc1ccc(C(=O)/C=C/c2ccc([N+](=O)[O-])cc2)cc1

Ans:
1. 26.0 h
2. 26.5 h
3. 21.5 h
4. 8.5 h
5. 13.0 h

All values here come from paper PMC6891756.
